target-or-test-system: Beta-secretase 2 (Homo sapiens)
Sequence (Q9Y5Z0 whole entry): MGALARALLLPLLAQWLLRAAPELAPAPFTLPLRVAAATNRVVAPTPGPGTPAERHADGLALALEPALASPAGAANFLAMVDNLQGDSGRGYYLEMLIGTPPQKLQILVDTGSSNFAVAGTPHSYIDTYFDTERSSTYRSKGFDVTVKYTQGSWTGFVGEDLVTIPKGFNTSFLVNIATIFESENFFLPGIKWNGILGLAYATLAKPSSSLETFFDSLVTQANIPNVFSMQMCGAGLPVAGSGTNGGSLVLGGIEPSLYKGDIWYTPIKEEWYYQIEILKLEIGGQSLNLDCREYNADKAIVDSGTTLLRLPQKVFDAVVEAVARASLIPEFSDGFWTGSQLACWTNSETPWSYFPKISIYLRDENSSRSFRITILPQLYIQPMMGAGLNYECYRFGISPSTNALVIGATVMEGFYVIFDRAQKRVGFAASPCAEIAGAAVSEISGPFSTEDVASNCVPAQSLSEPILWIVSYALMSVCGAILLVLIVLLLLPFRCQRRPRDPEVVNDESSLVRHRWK
measurement-kind: pKi
In textbook form, pKi equals minus log to base ten of the concentration in mol/L.

INSERT INTO assay_data (compound, measurement_kind, value_reported) VALUES
  ('CN1C(=N)NC(c2cccc(-c3cncc(F)c3)c2)(C2CC2)C1=O (configuration not stated)', 'pKi', 6.86);

Now turn to the next compound.
input: Beta-secretase 2 (Homo sapiens) / pKi / CN1C(=N)NC(c2cccc(-c3cccnc3)c2)(C2CC2)C1=O (configuration not stated) : value?
output: 6.44

###

method-notes: Ratio of drug level in brain to plasma in Sprague-Dawley rat at 30 mg/kg, po
Format: ADME, organism-based
Parameters: dose 30 mg/kg, route oral
cond: read-out: BPR
measurement-kind: Kp
Respond using a number only.

input: Form field: reported Kp of `CC#Cc1cncc(-c2cccc([C@@]3(C4CC4)NC(=N)N(C)C3=O)c2)c1`
output: 0.2

###

method-notes: Ratio of drug level in brain to plasma in rat at 10 mg/kg, po
Type: ADME, organism-based
Parameters: dose 10 mg/kg, route oral
cond: read-out: BPR
measurement-kind: Kp
Respond using a number only.

input: Form field: reported Kp of `CC#Cc1cncc(-c2cccc([C@@]3(C4CC4)NC(=N)N(C)C3=O)c2)c1`
output: 0.3

###

Record type: log10 of Ki measurement. Applies to: Beta-secretase 1 (Homo sapiens, UniProt P56817)
For clarity, the numbers are log10 values of Ki expressed in nM.

Field: example entries. Status: answers known.
INSERT INTO assay_data (compound, target_or_test_system, measurement_kind, value_reported) VALUES
  ('CN1C(=N)NC(c2cccc(-c3cncc(C#N)c3)c2)(C2CC2)C1=O (stereo not drawn)', 'Beta-secretase 1 (Homo sapiens, UniProt P56817)', 'log10 of Ki', 2.43),
  ('CN1C(=N)NC(c2ccccc2)(c2cccc(F)c2)C1=O (racemic)', 'Beta-secretase 1 (Homo sapiens, UniProt P56817)', 'log10 of Ki', 2.86),
  ('CN1C(=O)C(c2ccccc2)(c2cccc(C#N)c2)N=C1N (racemic)', 'Beta-secretase 1 (Homo sapiens, UniProt P56817)', 'log10 of Ki', 2.57),
  ('CN1C(=N)NC(c2cccc(-c3cccc(Cl)c3)c2)(C2CCCC2)C1=O (stereo not drawn)', 'Beta-secretase 1 (Homo sapiens, UniProt P56817)', 'log10 of Ki', 2.67),
  ('Cc1cncc(-c2cccc(C3(c4ccccc4)NC(=N)N(C)C3=O)c2)c1 (racemic)', 'Beta-secretase 1 (Homo sapiens, UniProt P56817)', 'log10 of Ki', 2.63),
  ('Cc1cncc(-c2cccc(C3(C4CC4)NC(=N)N(C)C3=O)c2)c1 (stereo not drawn)', 'Beta-secretase 1 (Homo sapiens, UniProt P56817)', 'log10 of Ki', 2.40),
  ('CN1C(=N)NC(c2cccc(-c3cccnc3)c2)(C2CC2)C1=O (stereo not drawn)', 'Beta-secretase 1 (Homo sapiens, UniProt P56817)', 'log10 of Ki', 2.43),
  ('CCOc1cccc(-c2cccc(C3(c4ccccc4)N=C(N)N(C)C3=O)c2)c1 (racemic)', 'Beta-secretase 1 (Homo sapiens, UniProt P56817)', 'log10 of Ki', 2.66),
  ('CN1C(=N)NC(c2ccccc2)(c2cccc(-c3cncc(Cl)c3)c2)C1=O (racemic)', 'Beta-secretase 1 (Homo sapiens, UniProt P56817)', 'log10 of Ki', 1.95),
  ('CN1C(=N)NC(c2ccccc2)(c2cccc(-c3cncc(C#N)c3)c2)C1=O (racemic)', 'Beta-secretase 1 (Homo sapiens, UniProt P56817)', 'log10 of Ki', 2.67);

input: Beta-secretase 1 (Homo sapiens, UniProt P56817) / log10 of Ki / CN1C(=N)NC(c2ccccc2)(c2cccc(-c3ccccc3)c2)C1=O (racemic) : value?
output: 3.52

input: Beta-secretase 1 (Homo sapiens, UniProt P56817) / log10 of Ki / CN1C(=N)NC(c2ccccc2)(c2cccc(-c3cnccn3)c2)C1=O (racemic) : value?
output: 2.49

input: Beta-secretase 1 (Homo sapiens, UniProt P56817) / log10 of Ki / CN1C(=N)NC(c2cccc(-c3cccc(Cl)c3)c2)(c2ccccn2)C1=O (stereo not drawn) : value?
output: 2.93

###

System: Plasma
method-notes: Plasma concentration in Sprague-Dawley rat at 30 mg/kg, po
Format: ADME, organism-based
Parameters: dose 30 mg/kg, route oral
cond: in vivo
measurement-kind: concentration

input: Form field: reported concentration of `CC#Cc1cncc(-c2cccc([C@@]3(C4CC4)NC(=N)N(C)C3=O)c2)c1`
output: 4.2 µM
